Data provenance is patent US20190322697A1.

- ASSAYED_SYSTEM: WT STING (Homo sapiens, UniProt Q86WV6, H232R)
- TEST_SUMMARY: Digitonin assay using 293T wtSTING-FL reporter cells
- CONDITION: 293T wtSTING-FL cells, ISRE firefly luciferase reporter, digitonin buffer 30 min, then 5 hours
- Sequence (Q86WV6 whole entry H232R): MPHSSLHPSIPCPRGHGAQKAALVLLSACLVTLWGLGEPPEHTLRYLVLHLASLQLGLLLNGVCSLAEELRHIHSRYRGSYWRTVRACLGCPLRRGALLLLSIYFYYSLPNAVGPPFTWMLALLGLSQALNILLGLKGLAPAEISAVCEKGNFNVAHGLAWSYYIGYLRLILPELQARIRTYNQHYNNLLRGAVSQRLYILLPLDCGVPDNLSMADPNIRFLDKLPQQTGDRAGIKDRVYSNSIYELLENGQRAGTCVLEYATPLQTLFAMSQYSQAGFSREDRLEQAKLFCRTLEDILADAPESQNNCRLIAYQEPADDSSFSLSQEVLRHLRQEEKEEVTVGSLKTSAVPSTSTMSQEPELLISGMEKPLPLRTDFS
pEC50: −log10 of the molar value.
Decide by pEC50: equal to or exceeding 7 means y, less means n.

Recorded results for 6 compounds are shown here.
[
  {
    "COMPOUND": "Nc1nc2c(ncn2[C@@H]2O[C@@H]3COP(=O)(O)COC4C(O)[C@@H](COP(=O)(O)OC2C3O)O[C@H]4n2cnc3c(N)ncnc32)c(=O)[nH]1 (some centres unmarked) [Example 3]",
    "ASSIGNED_CATEGORY": "y"
  },
  {
    "COMPOUND": "Nc1nc2c(ncn2[C@@H]2O[C@@H]3COP(=O)(O)O[C@@H]4[C@H](O)[C@@H](COP(=O)(O)O[C@@H]2[C@@H]3O)O[C@H]4n2cnc3c(N)ncnc32)c(=O)[nH]1 [2′2′-cGAMP, reference compound]",
    "ASSIGNED_CATEGORY": "y"
  },
  {
    "COMPOUND": "Nc1nc2c(ncn2[C@@H]2O[C@@H]3COP(=O)(O)O[C@H]4[C@@H](O)[C@H](n5cnc6c(=O)[nH]c(N)nc65)O[C@@H]4COP(=O)(O)O[C@H]3[C@H]2O)c(=O)[nH]1 [3′3′-c-di-GMP, reference compound]",
    "ASSIGNED_CATEGORY": "n"
  },
  {
    "COMPOUND": "Nc1ncnc2c1ncn2[C@@H]1O[C@@H]2COP(=O)(O)CO[C@H]3[C@H](O)[C@@H](COP(=O)(O)O[C@@H]1[C@@H]2O)O[C@H]3n1cnc2c(N)ncnc21 [Example 5]",
    "ASSIGNED_CATEGORY": "n"
  },
  {
    "COMPOUND": "Nc1nc2c(ncn2[C@@H]2O[C@@H]3COP(=O)(O)CO[C@@H]4[C@H](F)[C@@H](COP(=O)(O)O[C@@H]2[C@@H]3F)O[C@H]4n2cnc3c(N)ncnc32)c(=O)[nH]1 [Example 9]",
    "ASSIGNED_CATEGORY": "y"
  },
  {
    "COMPOUND": "Nc1ncnc2c1ncn2[C@@H]1O[C@@H]2COP(=O)(O)CO[C@H]3[C@H](O)[C@@H](COP(=O)(O)CO[C@H]1[C@@H]2O)O[C@H]3n1cnc2c(N)ncnc21 [Example 6]",
    "ASSIGNED_CATEGORY": "n"
  }
]

Prompt: Confirm if pEC50 reported for the compound Nc1ncnc2c1ncn2[C@@H]1O[C@@H]2COP(=O)(O)O[C@@H]3[C@H](F)[C@@H](COP(=O)(O)CO[C@@H]1[C@@H]2F)O[C@H]3n1cnc2c(N)ncnc21 [Example 8] is 7 or above.
Response: n

Prompt: Confirm if pEC50 reported for the compound Nc1nc2c(ncn2[C@@H]2O[C@@H]3COP(=O)(O)CO[C@@H]4[C@H](O)[C@@H](COP(=O)(O)CO[C@@H]2[C@@H]3O)O[C@H]4n2cnc3c(=O)[nH]c(N)nc32)c(=O)[nH]1 [Example 4] is 7 or above.
Response: n

Prompt: Confirm if pEC50 reported for the compound Nc1ncnc2c1ncn2[C@@H]1O[C@@H]2COP(=O)(O)CO[C@@H]3[C@@H](O)[C@@H](COP(=O)(O)CO[C@@H]1[C@H]2O)O[C@H]3n1cnc2c(N)ncnc21 [Example 7] is 7 or above.
Response: n

Prompt: Confirm if pEC50 reported for the compound Nc1ncnc2c1ncn2[C@@H]1O[C@@H]2COP(=O)(O)O[C@H]3[C@@H](O)[C@H](n4cnc5c(N)ncnc54)O[C@@H]3COP(=O)(O)O[C@H]2[C@H]1O [3′3′-c-di-AMP, reference compound] is 7 or above.
Response: n

====

- ASSAYED_SYSTEM: WT STING (Homo sapiens, UniProt Q86WV6, H232R)
- TEST_SUMMARY: Differential Scanning Fluorimetry with WT STING
- Assay type: binding
- Parameters: truncated human WT STING or AQ STING (amino acid residues 140-343); 8xHis (N, cleaved yes); SUMO (N, cleaved yes); made in house; host or cells: E. coli Rosetta-gami B (DE3)
- CONDITION: thermal shift, truncated human WT STING 0.1 mg/ml, 150 μM CDN
- Sequence (Q86WV6 140-343 H232R): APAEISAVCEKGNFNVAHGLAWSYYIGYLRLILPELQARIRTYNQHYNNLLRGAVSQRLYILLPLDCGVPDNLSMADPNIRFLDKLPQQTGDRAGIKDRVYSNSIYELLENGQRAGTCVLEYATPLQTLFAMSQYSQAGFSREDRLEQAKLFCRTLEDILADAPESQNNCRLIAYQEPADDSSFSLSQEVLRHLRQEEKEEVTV
Exercise: state measured DSF ΔTm WT STING for each of the molecules provided.
Give bare numbers, in °C.

Provide DSF ΔTm WT STING for all items below, preserving their order.
1. Nc1nc2c(ncn2[C@@H]2O[C@@H]3COP(=O)(O)O[C@H]4[C@@H](O)[C@H](n5cnc6c(=O)[nH]c(N)nc65)O[C@@H]4COP(=O)(O)O[C@H]3[C@H]2O)c(=O)[nH]1 [3′3′-c-di-GMP, reference compound]
2. Nc1ncnc2c1ncn2[C@@H]1O[C@@H]2COP(=O)(O)O[C@H]3[C@@H](O)[C@H](n4cnc5c(N)ncnc54)O[C@@H]3COP(=O)(O)O[C@H]2[C@H]1O [3′3′-c-di-AMP, reference compound]

Response:
1: 2.6; 2: 2.6

====

- ASSAYED_SYSTEM: WT STING (Homo sapiens, UniProt Q86WV6, H232R)
- TEST_SUMMARY: Differential Scanning Fluorimetry with WT STING
- Format: binding
- Set-up: truncated human WT STING or AQ STING (amino acid residues 140-343); 8xHis (N, cleaved yes); SUMO (N, cleaved yes); made in house; host or cells: E. coli Rosetta-gami B (DE3)
- CONDITION: thermal shift, truncated human WT STING 0.1 mg/ml, 150 μM CDN
Decide by DSF ΔTm WT STING: equal to or exceeding 9 °C means true (1), less means false (0).

Recorded results for 7 molecules are shown here.
[
  {
    "MOLECULE": "Nc1nc2c(ncn2[C@@H]2O[C@@H]3COP(=O)(O)COC4C(O)[C@@H](COP(=O)(O)OC2C3O)O[C@H]4n2cnc3c(N)ncnc32)c(=O)[nH]1 (stereo partly drawn)",
    "ASSIGNED_CATEGORY": "true (1)"
  },
  {
    "MOLECULE": "Nc1ncnc2c1ncn2[C@@H]1O[C@@H]2COP(=O)(O)CO[C@@H]3[C@@H](O)[C@@H](COP(=O)(O)CO[C@@H]1[C@H]2O)O[C@H]3n1cnc2c(N)ncnc21",
    "ASSIGNED_CATEGORY": "false (0)"
  },
  {
    "MOLECULE": "Nc1ncnc2c1ncn2[C@@H]1O[C@@H]2COP(=O)(O)O[C@@H]3[C@H](F)[C@@H](COP(=O)(O)CO[C@@H]1[C@@H]2F)O[C@H]3n1cnc2c(N)ncnc21",
    "ASSIGNED_CATEGORY": "false (0)"
  },
  {
    "MOLECULE": "Nc1ncnc2c1ncn2[C@@H]1O[C@@H]2COP(=O)(O)CO[C@H]3[C@H](O)[C@@H](COP(=O)(O)CO[C@H]1[C@@H]2O)O[C@H]3n1cnc2c(N)ncnc21",
    "ASSIGNED_CATEGORY": "false (0)"
  },
  {
    "MOLECULE": "Nc1nc2c(ncn2[C@@H]2O[C@@H]3COP(=O)(O)O[C@@H]4[C@H](O)[C@@H](COP(=O)(O)O[C@@H]2[C@@H]3O)O[C@H]4n2cnc3c(N)ncnc32)c(=O)[nH]1 [2′2′-cGAMP, reference compound]",
    "ASSIGNED_CATEGORY": "true (1)"
  },
  {
    "MOLECULE": "Nc1nc2c(ncn2[C@@H]2O[C@@H]3COP(=O)(O)CO[C@@H]4[C@H](F)[C@@H](COP(=O)(O)O[C@@H]2[C@@H]3F)O[C@H]4n2cnc3c(N)ncnc32)c(=O)[nH]1",
    "ASSIGNED_CATEGORY": "true (1)"
  },
  {
    "MOLECULE": "Nc1ncnc2c1ncn2[C@@H]1O[C@@H]2COP(=O)(O)CO[C@H]3[C@H](O)[C@@H](COP(=O)(O)O[C@@H]1[C@@H]2O)O[C@H]3n1cnc2c(N)ncnc21",
    "ASSIGNED_CATEGORY": "false (0)"
  }
]

Could you now look at the following molecule, please?
Prompt: Confirm if DSF ΔTm WT STING reported for the molecule Nc1nc2c(ncn2[C@@H]2O[C@@H]3COP(=O)(O)CO[C@@H]4[C@H](O)[C@@H](COP(=O)(O)CO[C@@H]2[C@@H]3O)O[C@H]4n2cnc3c(=O)[nH]c(N)nc32)c(=O)[nH]1 is 9 °C or above.
Response: false (0)

====

Exercise: state measured DSF ΔTm AQ STING for each of the compounds provided.
- ASSAYED_SYSTEM: AQ STING (G230A-R293Q) (Homo sapiens, UniProt Q86WV6, G230A/H232R/R293Q)
- Construct: truncated human WT STING or AQ STING (amino acid residues 140-343); 8xHis (N, cleaved yes); SUMO (N, cleaved yes); made in house; host or cells: E. coli Rosetta-gami B (DE3)
- Sequence (Q86WV6 140-343 G230A/H232R/R293Q): as the sequence (Q86WV6 140-343 H232R) above, with G91A, R154Q counted along it
- TEST_SUMMARY: Differential Scanning Fluorimetry with AQ STING
- Type: binding
- CONDITION: thermal shift, truncated human AQ STING 0.1 mg/ml, 150 μM CDN
Please answer using a numeric value trailed by its unit.

Reference set, count: 3
[
  {
    "COMPOUND": "Nc1nc2c(ncn2[C@@H]2O[C@@H]3COP(=O)(O)CO[C@@H]4[C@H](O)[C@@H](COP(=O)(O)CO[C@@H]2[C@@H]3O)O[C@H]4n2cnc3c(=O)[nH]c(N)nc32)c(=O)[nH]1 [Example 4]",
    "ASSAYED_SYSTEM": "AQ STING (G230A-R293Q) (Homo sapiens, UniProt Q86WV6, G230A/H232R/R293Q)",
    "ENDPOINT": "DSF ΔTm AQ STING",
    "VALUE_OBSERVED": "0.3 °C"
  },
  {
    "COMPOUND": "Nc1ncnc2c1ncn2[C@@H]1O[C@@H]2COP(=O)(O)CO[C@H]3[C@H](O)[C@@H](COP(=O)(O)CO[C@H]1[C@@H]2O)O[C@H]3n1cnc2c(N)ncnc21 [Example 6]",
    "ASSAYED_SYSTEM": "AQ STING (G230A-R293Q) (Homo sapiens, UniProt Q86WV6, G230A/H232R/R293Q)",
    "ENDPOINT": "DSF ΔTm AQ STING",
    "VALUE_OBSERVED": "−0.3 °C"
  },
  {
    "COMPOUND": "Nc1nc2c(ncn2[C@@H]2O[C@@H]3COP(=O)(O)COC4C(O)[C@@H](COP(=O)(O)OC2C3O)O[C@H]4n2cnc3c(N)ncnc32)c(=O)[nH]1 (stereo partly shown) [Example 3]",
    "ASSAYED_SYSTEM": "AQ STING (G230A-R293Q) (Homo sapiens, UniProt Q86WV6, G230A/H232R/R293Q)",
    "ENDPOINT": "DSF ΔTm AQ STING",
    "VALUE_OBSERVED": "19.0 °C"
  }
]

Prompt: // query DSF ΔTm AQ STING value for entry Nc1ncnc2c1ncn2[C@@H]1O[C@@H]2COP(=O)(O)CO[C@H]3[C@H](O)[C@@H](COP(=O)(O)O[C@@H]1[C@@H]2O)O[C@H]3n1cnc2c(N)ncnc21 [Example 5]
Response: 0.2 °C
